This collection of values is drawn from patent US20180369375A1.

Biological target: T1, human LAG3-His tagged recombinant protein (human)
T1 construct: also called human LAG3-His protein; recombinant human LAG3
T1 sequence (P18627 23-450): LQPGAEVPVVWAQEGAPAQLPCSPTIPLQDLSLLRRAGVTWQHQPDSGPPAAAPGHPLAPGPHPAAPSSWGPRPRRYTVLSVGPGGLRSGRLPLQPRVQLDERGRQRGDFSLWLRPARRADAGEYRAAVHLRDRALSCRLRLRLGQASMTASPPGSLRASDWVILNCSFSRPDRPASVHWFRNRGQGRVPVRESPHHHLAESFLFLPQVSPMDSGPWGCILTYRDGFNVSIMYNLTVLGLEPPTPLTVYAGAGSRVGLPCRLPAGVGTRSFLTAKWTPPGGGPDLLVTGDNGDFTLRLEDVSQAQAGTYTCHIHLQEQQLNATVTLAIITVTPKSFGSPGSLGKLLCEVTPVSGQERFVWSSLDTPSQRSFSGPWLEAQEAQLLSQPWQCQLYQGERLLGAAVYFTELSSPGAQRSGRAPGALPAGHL
Assay: SPR, Biacore T200; antibody captured, human LAG3-His as analyte, 1:1 Langmuir fit; average
Protocol: Approximately 4000 RU of […], Fragment Specific (Jackson ImmunoResearch Catalog #115-006-071, Lot 81313) was immobilized via amine coupling chemistry onto a Series S CM4 sensor chip, catalog number BR-1005-34. Human anti-human LAG3 clones were injected over the immobilized anti-human surfaces at 1 ug/mL for a capture level of 40 RU. HBS-EP+ buffer (BR-1006-69) was used as the running buffer with a flow rate of 30 μL/min. […]
TEST_READOUT: Kd (nM)
The reply should be a number in nM, with the unit left off.

Given the entry ADI-12126 (Q1E, M57A, M115L) IgG4 S228P/Kappa (antibody, V domains shown) VH: EVQLVQSGAEVKKPGASVKVSCKASGYTFTGYYMHWVRQAPGQGLEWMGWINANSGATNYAQKFQGRVTMTRDTSISTAYMELSRLRSDDTAVYYCARDIYDSSDQLNVWGQGTLVTVSS VL: EIVLTQSPATLSLSPGERATLSCRASQSVSSYLAWYQQKPGQAPRLLIYDASNRATGIPARFSGSGSGTDFTLTISSLEPEDFAVYYCQQASIWPLTFGGGTKVEIKR , report its measured Kd.
0.013
